# Lookup of reported Neuron Ratio (% of Control) keyed by entry
# Tested on: human hippocampal stem cells
# Assay Name: Neurogenesis, TuJ1 immunostaining / Hoechst (primary screen)
# Assay type: cell-based
# Conditions: seven days of compound treatment; ratio neuron:total cells (TuJ1/Hoechst)
Measured Parameter: Neuron Ratio (% of Control)

>>> observed_result("CS(=O)(=O)N1CCCCC1C(=O)NCc1ccc(Nc2c(C3CC3)nc3ccccn23)cc1 (stereo not shown)")
"104 ± 8 % of Control"
>>> observed_result("CC(C)CCNc1ncccc1C(=O)N1CCN(Cc2ccccc2)CC1")
"130 ± 19 % of Control"
>>> observed_result("CCN(CCNC(=O)c1cccnc1NCCC(C)C)Cc1cccnc1")
"127 ± 9 % of Control"
>>> observed_result("O=C(COc1ccccc1)NCc1nc2ccccn2c1NCC1CCCO1 (stereo not shown)")
"131 ± 4 % of Control"
>>> observed_result("COc1ccc(CCNc2ncc(C(N)=O)c(NC3CC3)n2)cc1OC")
"128 ± 4 % of Control"
>>> observed_result("CCCCNc1c(C2CCN(C(=O)CN(CC(C)C)S(C)(=O)=O)CC2)nc2cnccn12")
"92 ± 6 % of Control"
>>> observed_result("NC(=O)c1cnc(NCc2ccc(Cl)cc2)nc1NCC1CCCCC1")
"137 ± 8 % of Control"
>>> observed_result("CS(=O)(=O)N(CC(=O)NCc1nc2ccccn2c1NCc1ccccc1)c1ccccc1")
"135 ± 15 % of Control"
>>> observed_result("O=C(c1cccnc1N1CCNCC1)N1CCN(Cc2ccncc2)CC1")
"125 ± 15 % of Control"
>>> observed_result("O=C(NC1CCN(Cc2ccccc2)CC1)c1cccnc1N1CCNCC1")
"130 ± 14 % of Control"
>>> observed_result("CCCNc1ncc(C(N)=O)c(NC2CCCC2)n1")
"116 ± 8 % of Control"
>>> observed_result("CC(C)(C)OC(=O)NCCNC(=O)c1cccnc1NCC1CCCCC1")
"142 ± 6 % of Control"
>>> observed_result("CCCCNc1c(C2CCN(C(=O)c3ccc(C#N)cc3)CC2)nc2ccccn12")
"100 ± 6 % of Control"
>>> observed_result("C=CCNC(=O)c1cccnc1NCc1ccccc1OC")
"99 ± 6 % of Control"
>>> observed_result("NC(=O)C1CCCN1C(=O)c1cccnc1NCC1CCCCC1 (stereo not shown)")
"106 ± 9 % of Control"
>>> observed_result("O=C(NCc1nc2ccccn2c1NCC1CCCO1)Oc1ccccc1 (stereo not shown)")
"125 ± 10 % of Control"

---

# Tested on: Differentiating human hippocampal stem cells
# Assay Name: Neurogenesis dose-response profile
# Type: cell-based
# Conditions: Homo sapiens, Neuron, 168 h; @30000 nM; normalized against no-compound control; read-out: Neuron# Eff
# Protocol: FIG. 4 is a line graph illustrating an example of a neurogenesis dose-response profile of selected compounds. Differentiating human hippocampal stem cells were treated for seven days with varying concentrations of “primary hits”. Subsequently, the cells were fixed, stained with anti-beta tubulin antibody, and positive cells were quantified by Array Scan II. Shown are the number of neurons after each treatment normalized against the no-compound control. […]
# Lookup of reported activity at 30 µM keyed by entry
Measured Parameter: activity at 30 µM (%)

>>> observed_result("O=C(NC1CCN(Cc2ccccc2)CC1)c1cccnc1N1CCNCC1 [NSI-143]")
115
>>> observed_result("CS(=O)(=O)N1CCCCC1C(=O)NCc1ccc(Nc2c(C3CC3)nc3ccccn23)cc1 (centres unmarked) [NSI-127]")
137
>>> observed_result("CC(C)CCNc1ncccc1C(=O)N1CCN(Cc2ccccc2)CC1 [NSI-189]")
165
>>> observed_result("CCCNc1ncc(C(N)=O)c(NC2CCCC2)n1 [NSI-137]")
145
>>> observed_result("O=C(c1cccnc1N1CCNCC1)N1CCN(Cc2ccncc2)CC1 [NSI-142]")
175

---

# Tested on: Differentiating hippocampal human stem cells
# Assay Name: Long-term treatment in vitro neurogenesis
# Assay type: cell-based
# Conditions: Homo sapiens, 504 h; three weeks; 5× with 10 μM; compared to the control; read-out: Long Term Treatment Neur Ratio
# Lookup of reported activity at 10 µM keyed by entry
Measured Parameter: activity at 10 µM (%)

>>> observed_result("O=C(NC1CCN(Cc2ccccc2)CC1)c1cccnc1N1CCNCC1")
103
>>> observed_result("O=C(COc1ccccc1)NCc1nc2ccccn2c1NCC1CCCO1 (stereo not shown)")
111
>>> observed_result("CCN(CCNC(=O)c1cccnc1NCCC(C)C)Cc1cccnc1")
100
>>> observed_result("O=C(NCc1nc2ccccn2c1NCC1CCCO1)Oc1ccccc1 (stereo not shown)")
111
>>> observed_result("CC(C)(C)OC(=O)NCCNC(=O)c1cccnc1NCC1CCCCC1")
107
>>> observed_result("CCCNc1ncc(C(N)=O)c(NC2CCCC2)n1")
98
>>> observed_result("O=C(c1cccnc1N1CCNCC1)N1CCN(Cc2ccncc2)CC1")
120
>>> observed_result("CC(C)CCNc1ncccc1C(=O)N1CCN(Cc2ccccc2)CC1")
96
>>> observed_result("COc1ccc(CCNc2ncc(C(N)=O)c(NC3CC3)n2)cc1OC")
92
>>> observed_result("CCCCNc1c(C2CCN(C(=O)CN(CC(C)C)S(C)(=O)=O)CC2)nc2cnccn12")
120
>>> observed_result("CS(=O)(=O)N1CCCCC1C(=O)NCc1ccc(Nc2c(C3CC3)nc3ccccn23)cc1 (stereo not shown)")
131
>>> observed_result("NC(=O)C1CCCN1C(=O)c1cccnc1NCC1CCCCC1 (stereo not shown)")
114
>>> observed_result("C=CCNC(=O)c1cccnc1NCc1ccccc1OC")
105
>>> observed_result("NC(=O)c1cnc(NCc2ccc(Cl)cc2)nc1NCC1CCCCC1")
123
>>> observed_result("CCCCNc1c(C2CCN(C(=O)c3ccc(C#N)cc3)CC2)nc2ccccn12")
143
>>> observed_result("CS(=O)(=O)N(CC(=O)NCc1nc2ccccn2c1NCc1ccccc1)c1ccccc1")
105

---

# System: Differentiating hippocampal human stem cells
# Assay Name: Long-term treatment in vitro neurogenesis
# Assay type: cell-based
# Conditions: Homo sapiens, 504 h; three weeks; 5× with 10 μM; compared to the control; read-out: Long Term Treatment Prolif
Measured Parameter: activity at 10 µM (%)

>>> observed_result("CCCCNc1c(C2CCN(C(=O)CN(CC(C)C)S(C)(=O)=O)CC2)nc2cnccn12")
92
>>> observed_result("O=C(COc1ccccc1)NCc1nc2ccccn2c1NCC1CCCO1 (stereo not shown)")
99
>>> observed_result("O=C(c1cccnc1N1CCNCC1)N1CCN(Cc2ccncc2)CC1")
105
>>> observed_result("NC(=O)c1cnc(NCc2ccc(Cl)cc2)nc1NCC1CCCCC1")
97
>>> observed_result("CCCNc1ncc(C(N)=O)c(NC2CCCC2)n1")
111
>>> observed_result("O=C(NC1CCN(Cc2ccccc2)CC1)c1cccnc1N1CCNCC1")
153
>>> observed_result("CCN(CCNC(=O)c1cccnc1NCCC(C)C)Cc1cccnc1")
98
>>> observed_result("CCCCNc1c(C2CCN(C(=O)c3ccc(C#N)cc3)CC2)nc2ccccn12")
89
>>> observed_result("O=C(NCc1nc2ccccn2c1NCC1CCCO1)Oc1ccccc1 (stereo not shown)")
95
>>> observed_result("C=CCNC(=O)c1cccnc1NCc1ccccc1OC")
110
>>> observed_result("COc1ccc(CCNc2ncc(C(N)=O)c(NC3CC3)n2)cc1OC")
115
>>> observed_result("CC(C)CCNc1ncccc1C(=O)N1CCN(Cc2ccccc2)CC1")
144
>>> observed_result("NC(=O)C1CCCN1C(=O)c1cccnc1NCC1CCCCC1 (stereo not shown)")
99
>>> observed_result("CS(=O)(=O)N(CC(=O)NCc1nc2ccccn2c1NCc1ccccc1)c1ccccc1")
83
>>> observed_result("CS(=O)(=O)N1CCCCC1C(=O)NCc1ccc(Nc2c(C3CC3)nc3ccccn23)cc1 (stereo not shown)")
103
>>> observed_result("CC(C)(C)OC(=O)NCCNC(=O)c1cccnc1NCC1CCCCC1")
146
